Property: activity change, negative = inhibition; scope: individual compounds
assaySummary: qHTS Assay for inhibitors of the human cytomegalovirus (HCMV); note: % is set by controls: 0 for no effect and ±100 for the full control effect
conditionDetails: HFF cells, HCMV-luciferase reporter, 72 h; at 57.5 µM; hits give low values
Out of some 410,000 compounds screened, about 18,000 (4.4%) were called active. About 7% were inconclusive and are not listed. The entries come from a sample that favours actives as a whole.
The response must be a number in % with no trailing unit.

Solved entries:
# compound, activity change, negative = inhibition [%]
rows = [
    ("O=C(NCc1ccc(F)cc1)c1ccc(Cn2c(SCc3ccc(F)cc3)nc3cccnc32)cc1", 16),
    ("Cc1nn(Cc2ccc(F)cc2)c(C)c1NC(=O)c1cc(CC(C)C)on1", -39),
    ("COc1ccc(C2=NC3(CCCCC3)N(CC(=O)Nc3ccc(C(C)C)cc3)C2=O)cc1", -14.7),
]

Entry Cn1nccc1C(=O)NC1CCCc2c1cnn2-c1ccccc1F (stereo unspecified) has what activity change, negative = inhibition? -80

Entry `Cc1cc(C)cc(Nc2ncnc3onc(-c4ccc(F)cc4)c23)c1` has what activity change, negative = inhibition? -23.4

Entry `COc1ccc(-c2cc(C(=O)NCc3cc(OC)c(OC)c(OC)c3)[nH]n2)cc1` has what activity change, negative = inhibition? 3.93

Entry `COc1ccc(-c2csc(NC(=O)c3ccc(N4C(=O)CCC4=O)cc3)n2)cc1OC` has what activity change, negative = inhibition? -70.7

Entry `Cc1ccc(F)cc1S(=O)(=O)N1CCC(c2nc3ccccc3s2)CC1` has what activity change, negative = inhibition? -23.3

Entry `Cc1cc2nc(NC(=O)c3ccc(S(=O)(=O)N4CCOCC4)cc3)sc2cc1C` has what activity change, negative = inhibition? 3.59

Entry COC(=O)c1ccc(C(=O)NC2CC(C)(C)Cc3c2cnn3-c2ccc(F)cc2)nc1 (stereo unspecified) has what activity change, negative = inhibition? 29.8

Entry `Cc1cc(C)cc(NS(=O)(=O)c2cc3c(cc2C)NC(=O)CO3)c1` has what activity change, negative = inhibition? -26.3

Entry `COc1ccc(CCNC(=O)COC(=O)Cc2cc(OC)c(OC)c(OC)c2)cc1` has what activity change, negative = inhibition? -11.8

Entry `Cc1ccc(Nc2c(-c3ccc(C)s3)nc3ccccn23)cc1` has what activity change, negative = inhibition? 74.5

Entry CC1=C(C(=O)OCc2ccc(C)cc2)C(c2ccccc2Cl)CC(=O)N1 (stereo unspecified) has what activity change, negative = inhibition? -36.9

Entry `COc1ccc(CC(=O)Nc2nnc3n2CCS3)cc1OC` has what activity change, negative = inhibition? 1.77

* * *

assaySummary: qHTS Assay for inhibitors of the human cytomegalovirus (HCMV); note: % is set by controls: 0 for no effect and ±100 for the full control effect
conditionDetails: HFF cells, HCMV-luciferase reporter, 72 h; at 57.5 µM; hits give low values
Out of some 410,000 compounds screened, about 18,000 (4.4%) were called active. About 7% were inconclusive and are not listed. The list comes from a sample in which actives are over-represented; it also holds close analogues and randomly drawn compounds.
measuredParameter: activity change, negative = inhibition

Solved entries:
# molecule, measuredParameter, observed
records = [
    ("O=C1c2cccc3cccc(c23)N1CN1CCN(c2ccccn2)CC1", "activity change, negative = inhibition", "16% (inactive)"),
    ("COc1ccc(Cl)cc1NC(=O)C(C)Sc1nc2c(c(=O)[nH]1)CCCC2 (stereo not given)", "activity change, negative = inhibition", "12.7% (inactive)"),
]

Entry Cc1cccc(N2CCN(C(=O)CCn3c(=O)c4cccn4c4cccnc43)CC2C)c1 (stereo not given) has what activity change, negative = inhibition? 15% (inactive)

Entry `COc1ccc(C(C)(C)C)cc1NC(=O)CN(C)C1=NS(=O)(=O)c2ccccc21` has what activity change, negative = inhibition? 6.84% (inactive)

Entry `Cc1ccc2nc(COc3ccc(NC(=O)COc4ccccc4F)cc3)cc(=O)n2c1` has what activity change, negative = inhibition? 20.4% (inactive)

* * *

assaySummary: qHTS Assay for inhibitors of the human cytomegalovirus (HCMV); note: % is set by controls: 0 for no effect and ±100 for the full control effect
conditionDetails: HFF cells, HCMV-luciferase reporter, 72 h; at 57.5 µM; hits give low values
Out of some 410,000 compounds screened, about 18,000 (4.4%) were called active. Not shown: some 7% with an inconclusive outcome. The list comes from a sample in which actives are over-represented; it also holds close analogues and randomly drawn compounds.
measuredParameter: activity change, negative = inhibition (%)
The response must be a number in % with no trailing unit.

# compound, activity change, negative = inhibition [%]
rows = [
    ("COc1ccc2c(c1)c(C(=O)N/N=C/c1cccs1)c(C)n2C", -14.7),
    ("Cc1ccccc1-n1c(C)cc(/C=N/NC(=O)c2ccc(CN3CCOCC3)cc2)c1C", -25.2),
]

Entry O=C(c1[nH]ncc1-c1ccc(Cl)cc1)C1CO1 (stereo unspecified) has what activity change, negative = inhibition? -78.7

Entry `CC(C)C[C@H]1CN([C@@H](Cc2ccccc2)CN2CCC[C@@H]2CN2C(=O)C(=O)NC[C@@H]2Cc2ccc(O)cc2)C(=O)C(=O)N1CCc1ccccc1` has what activity change, negative = inhibition? -26.7

* * *

Property: activity change, negative = inhibition; scope: individual compounds
assaySummary: qHTS Assay for inhibitors of the human cytomegalovirus (HCMV); note: % is set by controls: 0 for no effect and ±100 for the full control effect
conditionDetails: HFF cells, HCMV-luciferase reporter, 72 h; at 57.5 µM; hits give low values
The campaign covered roughly 410,000 compounds. About 18,000 (4.4%) were called active. Not shown: some 7% with an inconclusive outcome. Shown is part of a subset that was picked to be rich in actives.
The response must be a number in % with no trailing unit.

# compound, observed
data = [
    ("O=C1CCCC2=C1C(c1cccs1)n1nc(SCc3ccccc3)nc1N2 (configuration not stated)", -15.6),
    ("Cc1ccc2nc(-c3ccccc3)c(CC3CCCCC3)n2c1", 43.3),
    ("CCOc1ccc(S(=O)(=O)NCCSc2ccccc2)cc1", 43.7),
]

Here is the next item to consider.
Entry CC(=O)Nc1ccc(NC(=O)C2CCCN(S(=O)(=O)c3ccc4c(c3)CCCC(=O)N4)C2)cc1 (configuration not stated) has what activity change, negative = inhibition? 20.2

* * *

Property: activity change, negative = inhibition; scope: individual compounds
assaySummary: qHTS Assay for inhibitors of the human cytomegalovirus (HCMV); note: % is set by controls: 0 for no effect and ±100 for the full control effect
conditionDetails: HFF cells, HCMV-luciferase reporter, 72 h; at 57.5 µM; hits give low values
Out of some 410,000 compounds screened, about 18,000 (4.4%) were called active. Another 7% or so got no clear call; they are omitted. Only a selection was taken, and actives are over-represented in it overall.
The response must be a number in % with no trailing unit.

# compound, activity change, negative = inhibition (%)
measured = [
    ("COC(=O)CN1C(=S)N(c2ccccc2)C(=O)C1CC(=O)Nc1ccc(Cl)cc1 (stereo not given)", -4.58),
    ("Cc1ccc(S(=O)(=O)N(Cc2nc(-c3ccc(Cl)cc3)no2)C2CCCCC2)cc1", -16.3),
]

Entry `O=C(NCc1cccnc1)c1ccc(CS(=O)(=O)c2ccc(Br)cc2)o1` has what activity change, negative = inhibition? -24.5

Entry Cc1c(Cl)c([N+](=O)[O-])nn1CC(=O)NCC1CCCO1 (stereo not given) has what activity change, negative = inhibition? 35.2

Entry `COc1ccc(-c2c(C)nn3c(N4CCC(C(=O)NCCC(C)C)CC4)cc(C)nc23)cc1OC` has what activity change, negative = inhibition? 1.6

Entry `CCC(=O)N1CCc2cc(Br)cc(S(=O)(=O)CCC(=O)NCCc3ccc(OC)c(OC)c3)c21` has what activity change, negative = inhibition? 7.78

Entry Cc1cccn2c(=O)c(C(=O)NC(C)c3ccccc3)cnc12 (stereo not given) has what activity change, negative = inhibition? -18.5

Entry Cc1c(Cl)c([N+](=O)[O-])nn1CCCC(=O)NC(C)c1ccccc1 (stereo not given) has what activity change, negative = inhibition? 46.9

Entry `O=C(N/N=C/c1c(O)n(C2CC2)c(=S)[nH]c1=O)c1ccccc1Cl` has what activity change, negative = inhibition? -9.9

Entry `Cc1cc(C)c2oc(-c3cccc(NC(=O)c4cccc(F)c4)c3C)nc2c1` has what activity change, negative = inhibition? -0.821

* * *

assaySummary: qHTS Assay for inhibitors of the human cytomegalovirus (HCMV); note: % is set by controls: 0 for no effect and ±100 for the full control effect
conditionDetails: HFF cells, HCMV-luciferase reporter, 72 h; at 57.5 µM; hits give low values
Among all 410,000 compounds or so, about 18,000 (4.4%) were called active. About 7% were inconclusive and are not listed. Shown is part of a subset that was picked to be rich in actives.
Define the label as yes (1) when activity change, negative = inhibition is strictly less than 10% and as no (0) in all remaining cases.

Solved cases below.
# compound, labelClass
data = [
    ("COc1ccccc1NC(=O)CSc1oc(-c2ccco2)nc1S(=O)(=O)c1ccc(Br)cc1", "no (0)"),
    ("CCOC(=O)C1CCCN(S(=O)(=O)c2cc(-c3cc(C)no3)ccc2OC)C1 (stereo not given)", "yes (1)"),
    ("CC(C)(C)C(=O)CCN1C(=O)C2(OCCO2)c2ccccc21", "yes (1)"),
    ("CC1(C(=O)NCc2cccc3ccccc23)CCN1Cc1ccc(-c2ccccc2)o1 (stereo not given)", "yes (1)"),
    ("O=C(Cn1nc(C(F)(F)F)c2c1CCCC2)Nc1ccc(Cl)cc1", "yes (1)"),
    ("COc1ccc(OC)c(NC(=O)CN2CCCN(Cc3cc(C)ccc3C)S2(=O)=O)c1", "yes (1)"),
    ("CC[C@@H](C)[C@@H](C(=O)N1CCN(C(=O)OC(C)(C)C)CC1)n1cc(CCC(=O)O)nn1", "no (0)"),
    ("Nn1c(SCC(=O)NC2CCCc3ccccc32)nnc1C1CC1 (stereo not given)", "no (0)"),
    ("Cc1ccc(Sc2ccncc2S(N)(=O)=O)cc1", "no (0)"),
]

Turning to the following compound.
Lab note: activity change, negative = inhibition threshold 10%. Does this compound come in strictly under it? `CC(C)(C)N1C(=O)c2c(C(=O)OCc3ccccc3)[nH]c(-c3ccccc3)c2C1=O` yes (1)
